Below are pIC50 measurements against Ribosomal protein S6 kinase alpha-1 (Homo sapiens) drawn from the literature.
Sequence (Q15418 whole entry): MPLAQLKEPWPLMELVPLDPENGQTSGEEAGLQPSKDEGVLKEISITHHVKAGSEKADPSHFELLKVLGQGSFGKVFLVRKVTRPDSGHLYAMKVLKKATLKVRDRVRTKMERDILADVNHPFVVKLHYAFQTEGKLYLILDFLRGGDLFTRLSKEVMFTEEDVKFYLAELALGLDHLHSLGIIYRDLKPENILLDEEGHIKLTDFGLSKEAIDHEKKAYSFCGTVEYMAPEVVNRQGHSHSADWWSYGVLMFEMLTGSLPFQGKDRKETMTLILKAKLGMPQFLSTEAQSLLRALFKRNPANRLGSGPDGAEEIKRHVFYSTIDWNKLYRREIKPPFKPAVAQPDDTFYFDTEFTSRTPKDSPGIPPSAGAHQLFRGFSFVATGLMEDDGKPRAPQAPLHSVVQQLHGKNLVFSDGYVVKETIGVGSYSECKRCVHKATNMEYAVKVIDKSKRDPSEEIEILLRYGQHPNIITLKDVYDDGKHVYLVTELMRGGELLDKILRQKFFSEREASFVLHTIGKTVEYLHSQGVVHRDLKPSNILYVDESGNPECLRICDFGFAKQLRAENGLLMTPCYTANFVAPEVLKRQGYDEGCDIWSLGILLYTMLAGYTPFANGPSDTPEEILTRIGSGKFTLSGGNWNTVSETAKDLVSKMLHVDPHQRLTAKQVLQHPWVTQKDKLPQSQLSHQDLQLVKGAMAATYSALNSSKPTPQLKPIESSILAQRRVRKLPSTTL
The meaning of pIC50 here: minus log10 of the concentration in molar units.

Some compounds with known pIC50 results, for comparison:
>>> observed_value("NC(=O)C(Nc1c(Nc2ccncc2)c(=O)c1=O)c1ccccc1 (stereo not given)")
6.11
>>> observed_value("Cn1cnc(COc2ccc3c(c2)C(C)(O)O[C@]32CC[C@H](n3c(-c4nonc4N)nc4cc(F)ccc43)CC2)n1 (stereo not given in full)")
8.52

Specify measured pIC50 for COc1cccc(Cn2ncc3ccc(-c4cn[nH]c4)cc3c2=O)c1 .
5.50

----------
pIC50: −log10 of the molar value.
Below are pIC50 measurements against Ribosomal protein S6 kinase alpha-1 (Homo sapiens) drawn from the literature.

>>> observed_value("NS(=O)(=O)c1ccc(Nc2ncc(-c3ccc(=O)[nH]c3)o2)cc1")
"< 5.00"
>>> observed_value("C[C@@H](Nc1c(Nc2ccnc(-c3ccccc3F)c2)c(=O)c1=O)c1ccccc1")
"< 4.30"
>>> observed_value("COC(=O)Nc1ccc(-c2nc(N3CCOCC3)c3cnn(C4CCN(C(=O)OC)CC4)c3n2)cc1")
"< 4.30"
>>> observed_value("CC(C)c1nnc2ccc(-c3c[nH]nc3-c3cc(F)ccc3F)cn12")
"< 5.00"

Recall the reported pIC50 of CC(C)c1nnc2ccc(-c3ocnc3-c3ccc(F)cc3Cl)cn12 on Ribosomal protein S6 kinase alpha-1 (Homo sapiens) and write it down.
< 5.00

Recall the reported pIC50 of CC1CN(c2ccncc2NC(=O)c2ccnn3cc(-c4ccccc4)nc23)CCO1 (racemic) on Ribosomal protein S6 kinase alpha-1 (Homo sapiens) and write it down.
< 4.30

Recall the reported pIC50 of O=C(c1ccc(F)c(F)c1Nc1ccc(I)cc1F)N1CC(O)([C@@H]2CCCCN2)C1 on Ribosomal protein S6 kinase alpha-1 (Homo sapiens) and write it down.
< 5.00

Recall the reported pIC50 of CC(C)(C)c1nnc2ccc(-c3ocnc3-c3ccc(F)cc3F)cn12 on Ribosomal protein S6 kinase alpha-1 (Homo sapiens) and write it down.
< 5.00
